experiment-summary: Oral bioavailability in human at 2 mg/kg
Format: ADME, organism-based
particulars: in vivo
measured-attribute: bioavailability (%)
Give bare numbers, in %.

Recorded bioavailability for O=c1c(-c2ccc(O)cc2)coc2c([C@@H]3O[C@H](CO)[C@@H](O)[C@H](O)[C@H]3O)c(O)ccc12 [PUERARIN] , please?
7

* * *

experiment-summary: Half life in human plasma
Assay type: ADME, cell-free
measured-attribute: half-life (min)
Give bare numbers, in min.

Recorded half-life for "CC(=O)Nc1ccc(O)cc1" , please?
12

* * *

experiment-summary: Oral bioavailability in human
Type: ADME, organism-based
particulars: in vivo
measured-attribute: bioavailability (%)
Answers are plain numbers, in %.

Recorded bioavailability for "CC(=O)Nc1ccc(O)cc1" , please?
86
